Tested on: FT3469 (normal neural stem cell line);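 further: cell Painting imaging in 384-well plates, CellProfiler features reduced to at least 20 principal components, Euclidean distance versus same-plate DMSO vehicle wells (0.1% v/v), median over six images per well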
Experimental Protocol: phenotypic distance (Euclidean, principal components) from DMSO controls (arbitrary units); higher = stronger morphological change
Measurement Setup: 3000 nM; exposure time: 72 h
Counter-ions that a name gives are not always drawn.
Experimental Endpoint: phenotypic distance
Reply with just the number.

Ask | Which phenotypic distance reading was recorded for the compound CCC(=O)OCC(=O)[C@@]1(OC(=O)CC)[C@H](C)C[C@H]2[C@H]3[C@H]([C@@H](O)C[C@@]21C)[C@@]1(C)C=CC(=O)C=C1C[C@H]3Cl [Alclometasone dipropionate] ?
Reply | 1.23

Ask | Check OCCN1C[C@H](O)[C@@H](O)[C@H](O)[C@H]1CO too.
Reply | 0.734

Ask | Do the same for CCCCCC[C@H]1C(=O)O[C@H](C)[C@H](NC(=O)c2cccc(NC=O)c2O)C(=O)O[C@@H](C)[C@@H]1OC(=O)CC(C)C [Antimycin A] please
Reply | 1.34

Ask | Next compound: Nc1ncn(C2OC(CO)C(O)C2O)c(=O)n1 (stereo not drawn)
Reply | 1.77

Ask | Now try Cc1cc(/C=C/c2ccc3cc(N(C)C)ccc3[n+]2C)c(C)n1-c1ccccc1 [Pyrvinium pamoate] .
Reply | 13

Ask | Check Cc1cc(CN)cc(C)c1NC(=O)c1ccc(-c2cc(Cl)ccc2Cl)o1 too.
Reply | 0.784

Ask | Another compound to look at: Cn1ncnc1[C@H]1c2n[nH]c(=O)c3cc(F)cc(c23)N[C@@H]1c1ccc(F)cc1
Reply | 2.44

Ask | Again, but for CCCCCCC[N+](CC)(CC)CCCCc1ccc(Cl)cc1 [Clofilium tosylate]
Reply | 1.3
